Experiment: qHTS for small molecule inhibitors of Yes1 kinase: Counter Assay (AID 686950);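 further: no kinase present so only ADP-Glo detection of a fixed ADP amount is tested; luminescence from ADP-Glo reporting ADP in a fixed ATP and ADP mixture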
Conditions: series mostly up to 76.9 µM
Text: The Src family of non-receptor protein tyrosine kinases contains nine members, including Yes1, Src, Fyn, Lyn, and […]. These kinases have important roles in a variety of cellular functions, such as cell proliferation, survival, and differentiation. […] Two microliter of buffer (columns 1-48) are dispensed into Greiner, white solid-bottom 1536-well assay plates. […] The amount of ADP is then quantified by the ADP-Glo Kit (Promega, Madison, WI). […]
The source made the active and inactive calls. The call rests on the fitted dose curve; in most records, active means well fitted curve in the direction sought with a large enough effect; inactive means no such curve, though single readings can be large or run the other way.
value.type: outcome

Worked examples follow.
smi: COC(=O)Nc1nc2ccc(Oc3ccc(NC(=O)Nc4ccccc4)cc3)cc2[nH]1
outcome: inactive

smi: c1cnn2ncc(-c3ccnc(Nc4ccc5c(c4)OCCO5)n3)c2c1
outcome: inactive

smi: NS(=O)(=O)c1cccc(Nc2cc(-c3ccc(F)cc3)[nH]n2)c1
outcome: inactive

smi: COc1ccc(-c2ccc3c(NC(=O)C4CC4)n[nH]c3n2)cc1
outcome: inactive

For each of the items listed, what is its outcome?
1. c1ccc(Cc2nc3ccc(Nc4ncnc5ccccc45)cc3[nH]2)cc1
2. Cc1ccc(NC(=O)c2ccoc2)cc1-c1ccc(C(=O)NCC2CC2)cc1
3. COc1cc2ncn(-c3cc(OCc4ccccc4C(F)(F)F)c(C(C)=O)s3)c2cc1OC

Key:
["inactive", "inactive", "inactive"]

For each of the compounds below, note its outcome.
1. CCn1c(-c2nonc2N)nc2c(N3CCCC3)nccc21
2. Oc1cccc(-c2nc(-c3ccccc3)[nH]c2-c2ccncc2)c1
3. CCc1nn2ncccc2c1-c1ccnc(NC2CC2)n1
4. O=C1NC(=O)C(c2ccccc2Cl)=C1Nc1cc(Cl)c(O)c(Cl)c1

Key:
1: inactive; 2: inactive; 3: inactive; 4: inactive

====

Target: Luciferin 4-monooxygenase (Photinus pyralis) (UniProt P08659)
Sequence (P08659 whole entry, looked up): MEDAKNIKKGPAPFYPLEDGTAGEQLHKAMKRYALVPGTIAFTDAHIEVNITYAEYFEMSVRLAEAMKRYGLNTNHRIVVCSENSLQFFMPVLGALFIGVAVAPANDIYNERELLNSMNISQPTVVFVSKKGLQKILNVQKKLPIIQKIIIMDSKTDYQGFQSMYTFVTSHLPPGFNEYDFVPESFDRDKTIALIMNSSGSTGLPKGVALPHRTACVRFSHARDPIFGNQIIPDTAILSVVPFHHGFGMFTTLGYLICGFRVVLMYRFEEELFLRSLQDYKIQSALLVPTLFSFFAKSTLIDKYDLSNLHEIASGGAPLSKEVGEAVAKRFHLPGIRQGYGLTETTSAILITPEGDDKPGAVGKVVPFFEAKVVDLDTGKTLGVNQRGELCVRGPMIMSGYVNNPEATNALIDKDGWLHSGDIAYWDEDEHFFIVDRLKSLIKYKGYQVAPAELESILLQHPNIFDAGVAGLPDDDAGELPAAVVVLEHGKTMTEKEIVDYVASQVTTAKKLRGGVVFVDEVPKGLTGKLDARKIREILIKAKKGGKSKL
Assay: Biochemical firefly luciferase enzyme assay for NPC (AID 624030);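 further: purified P. pyralis luciferase at 10 nM with luciferin and ATP substrate; nearly all actives have a fitted effect of over 70% in size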
Conditions: purified P. pyralis luciferase, luminescence, 5 min; series mostly up to 58.6 µM
Inconclusive results are not listed. Activity calls are given as the source filed them. Calls come from the whole dose curve; as a rule, active = well fitted inhibition curve with a large enough effect; inconclusive = small, poorly fitted or top-dose-only effect; inactive = flat fitted curve, though single readings scatter.
value.type: outcome

compound: O=C(CO)[C@@H](O)C(O)[C@@H](O)CO (stereo partly drawn)
value.type: outcome
result: inactive
--
compound: CCCCCCCCCCCCCCCC(=O)O[C@@H]1CC(C)=C(\C=C/C(C)=C\C=C/C(C)=C\C=C\C=C(C)\C=C\C=C(C)\C=C\C2=C(C)C[C@@H](OC(=O)CCCCCCCCCCCCCCC)CC2(C)C)C(C)(C)C1
value.type: outcome
result: inactive
--
compound: CCN(CC)CCOc1ccc(/C(=C(/Cl)c2ccccc2)c2ccccc2)cc1
value.type: outcome
result: inactive

====

Target: Cytochrome P450 2D6 (Homo sapiens) (UniProt P10635)
Sequence (P10635 whole entry, looked up): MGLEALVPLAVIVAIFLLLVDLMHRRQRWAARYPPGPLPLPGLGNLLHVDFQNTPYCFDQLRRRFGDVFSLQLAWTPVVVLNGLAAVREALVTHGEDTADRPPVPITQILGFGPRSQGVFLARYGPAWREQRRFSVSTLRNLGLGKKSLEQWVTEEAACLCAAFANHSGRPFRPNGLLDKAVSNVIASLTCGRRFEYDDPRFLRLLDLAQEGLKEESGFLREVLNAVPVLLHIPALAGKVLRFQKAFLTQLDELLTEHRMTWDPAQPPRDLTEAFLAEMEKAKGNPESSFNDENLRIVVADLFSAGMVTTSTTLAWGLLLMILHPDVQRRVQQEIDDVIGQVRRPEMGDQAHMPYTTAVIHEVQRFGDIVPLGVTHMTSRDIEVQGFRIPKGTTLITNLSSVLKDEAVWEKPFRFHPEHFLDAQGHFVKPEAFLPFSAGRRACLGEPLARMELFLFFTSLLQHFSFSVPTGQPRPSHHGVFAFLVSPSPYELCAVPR
Assay: qHTS Assay for Inhibitors and Substrates of Cytochrome P450 2D6 (AID 891); further: nearly all actives have a fitted effect of over 60% in size
Details: recombinant CYP2D6, luciferin-ME EGE luminescence; series mostly up to 11.4 µM
Protocol: NIH Molecular Libraries Screening Centers Network [MLSCN] NIH Chemical Genomics Center [NCGC] The P450 gene superfamily is involved in the metabolism and clearance of xenobiotics. […] The luciferin is then measured by luminescence after the addition of a luciferase detection reagent. […] Inhibitors and some substrates limit the production of luciferin, and decrease measured luminescence. […]
Results filed as inconclusive are left out. Calls of active or inactive are those of the source. Calls come from the whole dose curve; as a rule, active = well fitted inhibition curve with a large enough effect; inconclusive = small, poorly fitted or top-dose-only effect; inactive = no such curve, though single readings can be large or run the other way.
Respond using exactly one of the listed classes: True (active), False (inactive)

Use these answered entries as a reference point.
compound: C/C=C/OC(=O)NC(c1cccc(C)c1)[C@@]1(C(=O)OCC)CCCC1=O (stereo not given in full)
classification: False

compound: Cc1ccccc1OC1C=CC(C#Cc2ccc(Br)cc2)OC1CO (stereo not given)
classification: False

Exercise: Dear colleague, could you share the recorded outcome for COC(=O)NC(c1ccccc1)C(C(=O)OC)C(=O)OC (stereo not given) when you have a moment?
Key: True

Exercise: Could you check what this test reported for `C[C@@H]1/C=C\CC(=O)OC[C@H]2O[C@@H](C=C[C@@H]2O)[C@H](C)/C=C\CC(=O)OC1` ?
Key: False

Exercise: # outcome recorded in this test, key = `CO[C@@H]1COC(=O)CCC[C@@H](C)[C@H](OC)COC(=O)CCC[C@H]1C`
Key: False

Exercise: Record lookup: outcome of this test for CC1CCC(C(=O)O)NC1c1ccc(-c2ccco2)cc1 (stereo not given) ?
Key: False

Exercise: Tell me the recorded outcome of this test for CCCCCCCC#Cc1ccccc1C(NC(=O)OC)C(C(=O)OC)C(=O)OC (stereo not given) .
Key: False

Exercise: # lookup: test call for `COCOc1cc(OC)ccc1C(=O)/C=C\c1ccc2c(c1)OCO2`
Key: True

Exercise: Test call, this compound: CCN1C(C)=C(C(=O)OC)C(c2ccccc2)N2C(=O)[C@](O)(C(=O)OC)CC(C#N)=C12 (stereo not given in full)
Key: False

Exercise: GET /call?item= `C[C@@H](c1ccccc1)N1C(=O)[C@H]2[C@@H]3[C@H](O)C=CC(=O)[C@H]3CC[C@H]2C1=O` returns the recorded outcome of this test.
Key: False
